Data origin: patent US20210355106A1

Target: USP7 (Homo sapiens, UniProt Q93009, C315A)
Construct: 0.25 nM His-His-USP7 (aa208-560, |C315A|) was incubated with compound; His-His (N)
Sequence (Q93009 208-560 C315A): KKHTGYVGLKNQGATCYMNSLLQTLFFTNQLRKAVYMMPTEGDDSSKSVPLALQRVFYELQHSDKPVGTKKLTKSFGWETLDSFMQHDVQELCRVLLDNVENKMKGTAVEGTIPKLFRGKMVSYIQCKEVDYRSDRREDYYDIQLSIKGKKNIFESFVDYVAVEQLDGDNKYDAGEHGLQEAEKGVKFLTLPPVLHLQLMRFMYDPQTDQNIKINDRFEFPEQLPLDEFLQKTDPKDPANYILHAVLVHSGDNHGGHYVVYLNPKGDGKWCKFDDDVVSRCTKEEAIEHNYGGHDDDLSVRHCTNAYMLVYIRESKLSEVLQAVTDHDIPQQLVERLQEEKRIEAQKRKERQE
Assay: Inhibition of USP7 by Fluorescence Intensity (FLINT) readings, Ubiquitin-Rhodamine-110 substrate
Assay type: biochemical
Settings: 0.25 nM His-His-USP7 (aa208-560), 60 minutes at 30° C. preincubation; Ki determined from IC50 according to Cer et al.
# strict inequality: Ki < 40 nM yields 1.0, everything else yields 0.0

Answer whether the compound Nc1c(Oc2ccc(F)cc2)ncn(CC2(O)CCN(C(=O)[C@@H]3CCN(C(=O)c4cncc(-n5cccc5)c4)C[C@H]3c3ccccc3)CC2)c1=O [Example 163] has Ki strictly less than 40 nM
1.0

Answer whether the compound COc1cc(Oc2ncn(CC3(O)CCN(C(=O)[C@@H]4CCN(C(=O)c5sc(-c6ccc(C)nc6)nc5C)C[C@H]4c4ccccc4)CC3)c(=O)c2N)ccc1F [Example 25] has Ki strictly less than 40 nM
1.0

Answer whether the compound Nc1c(Oc2ccc(F)cc2)ncn(C[C@@]2(O)CCN(C(=O)[C@@H]3CCN(C(=O)C4CC(c5ccccc5)C4)C[C@H]3c3ccccc3)CC2(F)F)c1=O (single isomer, unassigned) [Example 71] has Ki strictly less than 40 nM
0.0

Answer whether the compound Nc1c(Oc2ccccc2)ncn(CC2(O)CCN(C(=O)[C@@H]3CCNC[C@H]3c3ccccc3)CC2)c1=O [Example 20] has Ki strictly less than 40 nM
0.0

Answer whether the compound Cn1cnc2ccc(C(=O)N3CC[C@@H](C(=O)N4CCC(O)(Cn5cnc(Oc6ccc(F)cc6)c(N)c5=O)CC4)[C@H](c4ccccc4)C3)cc2c1=O [Example 123] has Ki strictly less than 40 nM
1.0

Answer whether the compound COc1cc(Cl)cc(Oc2ncn(CC3(O)CCN(C(=O)[C@@H]4CCN(C(=O)c5sc(-c6ccc(C)nc6)nc5C)C[C@H]4c4ccccc4)CC3)c(=O)c2N)c1 [Example 23] has Ki strictly less than 40 nM
1.0

Answer whether the compound Cc1nc(-c2ccc(C(F)(F)F)nc2)sc1C(=O)N1CC[C@@H](C(=O)N2CCC(O)(Cn3cnc(Oc4ccc(F)cc4)c(N)c3=O)CC2)[C@H](c2ccccc2)C1 [Example 42] has Ki strictly less than 40 nM
1.0

Answer whether the compound Cc1ccccc1C1(N2CC[C@@H](C(=O)N3CCC(O)(Cn4cnc(Oc5ccc(F)cc5)c(N)c4=O)CC3)[C@H](c3ccccc3)C2)COC1 [Example 138] has Ki strictly less than 40 nM
0.0

Answer whether the compound Cc1ccc(-c2nc(C)c(C(=O)N3CC[C@@H](C(=O)N4CC[C@](O)(Cn5cnc(Oc6ccc(CN)cc6)c(N)c5=O)C(F)(F)C4)[C@H](c4ccccc4)C3)s2)cn1 [Example 210] has Ki strictly less than 40 nM
1.0

Answer whether the compound Nc1c(Oc2ccc(F)cc2)ncn(CC2(O)CCN(C(=O)[C@@H]3CCN(C4(c5ccccc5)COC4)C[C@H]3c3ccccc3)CC2)c1=O [Example 108] has Ki strictly less than 40 nM
0.0

Answer whether the compound Nc1c(Oc2ccc(F)cc2)ncn(CC2(O)CCN(C(=O)[C@@H]3CCN(C(=O)Nc4cccc(C(F)(F)F)c4)C[C@H]3c3ccccc3)CC2)c1=O [Example 81] has Ki strictly less than 40 nM
0.0
